Origin of values: patent US20220088148A1

subject-of-test: human GCG receptor (human, UniProt P47871 26-477)
Sequence (P47871 26-477): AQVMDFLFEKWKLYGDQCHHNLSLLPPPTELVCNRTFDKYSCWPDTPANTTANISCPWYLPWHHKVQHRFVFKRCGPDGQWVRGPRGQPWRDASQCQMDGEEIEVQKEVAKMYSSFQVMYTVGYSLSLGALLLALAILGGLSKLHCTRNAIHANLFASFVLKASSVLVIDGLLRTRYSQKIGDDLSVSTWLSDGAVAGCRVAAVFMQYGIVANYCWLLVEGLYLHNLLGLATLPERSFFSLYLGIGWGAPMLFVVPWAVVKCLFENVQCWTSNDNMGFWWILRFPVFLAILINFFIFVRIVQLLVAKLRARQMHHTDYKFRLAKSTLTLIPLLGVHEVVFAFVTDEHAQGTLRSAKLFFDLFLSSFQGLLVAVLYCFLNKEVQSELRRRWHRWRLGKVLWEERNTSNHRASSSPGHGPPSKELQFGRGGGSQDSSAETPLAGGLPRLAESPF
assay-comment: cell-based or functional assay
Bridges are numbered along the chain shown (N, C = ends). Where no end group is shown, it is not given here. [ ]: non-standard residue; d: D form. Aib = CC(C)(N)C(=O)O
Quick list: In vitro activity (%) vs. Glucagon, cAMP EC50 per entry.
readout-name: In vitro activity (%) vs. Glucagon, cAMP EC50

{"binder": "Y[Aib]QGTFTSDYSKYLDERACKDFVQWLLDHHPSSGQPPPS (bridge 16-20; ends not checked) [triple agonist of SEQ ID NO: 71]", "measurement": 12.7}
{"binder": "Y[Aib]QGTFTSDYSKYLDEKRAKEFVQWLLDHCPSSGQPPPS (bridge 16-20) [triple agonist of SEQ ID NO: 96]", "measurement": 195}
{"binder": "Y[Aib]QGTFTSDYSKYLDEKRAKEFVQWLLCHHPSSGQPPPS (bridge 16-20) [triple agonist of SEQ ID NO: 95]", "measurement": 0.4}
